Would you kindly list NanoBRET Fold Response for each of these molecules?
Target: CCR6 (Homo sapiens, UniProt P51684)
Construct: purchased Promega (in-house HiBiT-GPCR construct library, NanoBRET)
Sequence (P51684 whole entry): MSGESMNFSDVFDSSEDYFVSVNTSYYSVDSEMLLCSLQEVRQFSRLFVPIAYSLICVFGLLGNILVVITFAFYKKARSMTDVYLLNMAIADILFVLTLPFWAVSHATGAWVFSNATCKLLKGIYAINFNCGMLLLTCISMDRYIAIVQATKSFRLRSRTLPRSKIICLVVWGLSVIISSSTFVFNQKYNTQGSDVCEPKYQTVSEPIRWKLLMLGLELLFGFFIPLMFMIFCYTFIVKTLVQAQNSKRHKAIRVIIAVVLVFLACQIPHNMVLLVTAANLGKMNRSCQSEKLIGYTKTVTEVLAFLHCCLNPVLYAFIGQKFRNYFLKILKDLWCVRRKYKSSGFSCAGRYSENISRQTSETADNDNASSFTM
Test: NanoBRET screen HiBiT-CCR6 in HEK293
Assay type: binding
Settings: CCR6; tracer 1μM
The reply should be a number, written without any unit.

Q. Reported NanoBRET Fold Response, molecule COc1ccccc1N1CCN(CCCCN2C(=O)c3ccc(CNC(=O)CCOCCOCCOCCOCCNC(=O)CCc4ccc5n4[B-](F)(F)[N+]4=C(c6ccc[nH]6)C=CC4=C5)cc3C2=O)CC1 [NAN-190-2-NB590] : ____
A. 1.02

Q. Reported NanoBRET Fold Response, molecule CC(C)N(CC[C@H](c1ccccc1)c1cc(CCNC(=O)c2ccc(CNC(=O)CCc3ccc4n3[B-](F)(F)[N+]3=C(c5ccc[nH]5)C=CC3=C4)cc2)ccc1O)C(C)C [Tolterodine-BZ-NB590] : ____
A. 1.03

Q. Reported NanoBRET Fold Response, molecule O=C(CCOCCOCCOCCOCCNC(=O)CCc1ccc2n1[B-](F)(F)[N+]1=C(c3ccc[nH]3)C=CC1=C2)NCCCN1CCN(C2=Nc3ccccc3Oc3ccc(Cl)cc32)CC1 [Loxapine-a-2-NB590] : ____
A. 0.97
